- EXPERIMENT: in vivo
- Design: species or system mice
- TEST_SETTINGS: male, NOD.Cg-Rag1tm1Mom Il2rgtm1Wjl/SzJ (NRG), mouse, iv, total radioactivity, Ratio Tumor-to-Bone
Where a SMILES comes first, the peptide text is derived from it. Bridges are numbered along the chain shown (N, C = ends). [ ]: non-standard residue; d: D form. The star is where a group is joined. X5 = O=C(O)CN1CCN(CC(=O)O)CCN(CC(=O)N[C@@H](CS(=O)(=O)O)C(=O)N[C@@H](CCCCNC(=O)CCCc2ccc(Cl)cc2)C(=O)*)CCN(CC(=O)O)CC1; X1 = O=C(O)CN1CCN(CC(=O)O)CCN(CC(=O)N[C@@H](CS(=O)(=O)O)C(=O)N[C@@H](CCCCNC(=O)CCCc2ccc(I)cc2)C(=O)*)CCN(CC(=O)O)CC1; X6 = COc1ccc(CCCC(=O)NCCCC[C@H](NC(=O)[C@H](CS(=O)(=O)O)NC(=O)CN2CCN(CC(=O)O)CCN(CC(=O)O)CCN(CC(=O)O)CC2)C(=O)*)cc1; 2Nal = N[C@@H](Cc1ccc2ccccc2c1)C(=O)O; Lys(iPr) = CC(C)NCCCC[C@H](N)C(=O)O
ATTRIBUTE_MEASURED: tissue to tissue ratio at 1 h
// response body must contain only the number

## Task Consider the molecule CC(C)NCCCC[C@H](NC(=O)[C@H]1CCC(=O)N[C@@H](CCCCNC(=O)[C@H](CCCCNC(=O)CCCc2ccc(Cl)cc2)NC(=O)[C@H](CS(=O)(=O)O)NC(=O)CN2CCN(CC(=O)O)CCN(CC(=O)O)CCN(CC(=O)O)CC2)C(=O)N[C@@H](Cc2ccc(O)cc2)C(=O)N[C@@H](CCCCNC(C)C)C(=O)N[C@H](CCCNC(=N)N)C(=O)N[C@@H](Cc2ccc3ccccc3c2)C(=O)N[C@H](C)C(=O)N1)C(N)=O [[^68Ga]Ga-BL34L16, metal not drawn] (K(X5)Y[Lys(iPr)][dR][2Nal][dA][dE][Lys(iPr)]-NH2; lactam N-7) and give its measured tissue to tissue ratio at 1 h.
## Result 6.11

## Task Consider the molecule CC(C)NCCCC[C@H](NC(=O)[C@H]1CCC(=O)N[C@@H](CCCCNC(=O)[C@H](CCCCNC(=O)CCCc2ccc(I)cc2)NC(=O)[C@H](CS(=O)(=O)O)NC(=O)CN2CCN(CC(=O)O)CCN(CC(=O)O)CCN(CC(=O)O)CC2)C(=O)N[C@@H](Cc2ccc(O)cc2)C(=O)N[C@@H](CCCCNC(C)C)C(=O)N[C@H](CCCNC(=N)N)C(=O)N[C@@H](Cc2ccc3ccccc3c2)C(=O)N[C@H](C)C(=O)N1)C(N)=O [[^68Ga]Ga-BL34L11, metal not drawn] (K(X1)Y[Lys(iPr)][dR][2Nal][dA][dE][Lys(iPr)]-NH2; lactam N-7) and give its measured tissue to tissue ratio at 1 h.
## Result 4.32

## Task Consider the molecule COc1ccc(CCCC(=O)NCCCC[C@H](NC(=O)[C@H](CS(=O)(=O)O)NC(=O)CN2CCN(CC(=O)O)CCN(CC(=O)O)CCN(CC(=O)O)CC2)C(=O)NCCCC[C@@H]2NC(=O)CC[C@H](C(=O)N[C@@H](CCCCNC(C)C)C(N)=O)NC(=O)[C@@H](C)NC(=O)[C@H](Cc3ccc4ccccc4c3)NC(=O)[C@@H](CCCNC(=N)N)NC(=O)[C@H](CCCCNC(C)C)NC(=O)[C@H](Cc3ccc(O)cc3)NC2=O)cc1 [[^68Ga]Ga-BL34L7, metal not drawn] (K(X6)Y[Lys(iPr)][dR][2Nal][dA][dE][Lys(iPr)]-NH2; lactam N-7) and give its measured tissue to tissue ratio at 1 h.
## Result 37.2
